System: Bacillus cereus
Assay: Antibacterial activity against Bacillus cereus clinical isolate after 24 hrs
Assay type: functional
measured.metric: MIC (µM)

[
  {
    "compound": "COc1ccc(/C=C2\\S/C(=N\\c3nc(C45CC6CC(CC(C6)C4)C5)cs3)NC2=O)cc1",
    "MIC, µM": 23.1
  }
]

1 = O=C1N/C(=N/c2nc(C34CC5CC(CC(C5)C3)C4)cs2)S/C1=C\c1ccc(Cl)cc1
2 = COc1cc(/C=C2\S/C(=N\c3nc(C45CC6CC(CC(C6)C4)C5)cs3)NC2=O)ccc1O
3 = CN[C@@H]1[C@H](O[C@H]2[C@H](O[C@H]3[C@H](O)[C@@H](O)[C@H](N=C(N)N)[C@@H](O)[C@@H]3N=C(N)N)O[C@@H](C)[C@]2(O)C=O)O[C@@H](CO)[C@H](O)[C@H]1O [STREPTOMYCIN]
Q) Task field, ranking: reported MIC, descending order. Kindly provide the labels arranged according to the requested ordering.
A) 3, 1, 2
